Measured Ki, listed per entry for reference.
Molecular target: Adrenergic receptor alpha-1 (Rattus norvegicus, UniProt P15823+P23944+P43140)
Assay: Displacement of [3H]prazosine from Alpha-1 adrenergic receptor in Sprague-Dawley rat brain P2 membranes after […] by liquid scintillation counting
Answer by giving the amount and then stating its unit.

Below are worked cases with known answers.
* Cl.Fc1cccc2ccn(CC3=NCCN3)c12 | 36.7 nM
* Cl.Fc1ccc2ccn(CC3=NCCN3)c2c1 | 87.83 nM
* Cl.Fc1cccc2c1ccn2CC1=NCCN1 | 27.56 nM
* Brc1ccc2c(ccn2CC2=NCCN2)c1.Cl | 1348 nM
* Br.Cc1cccc2ccn(CC3=NCCN3)c12 | 24.97 nM
* Br.COc1cccc2ccn(CC3=NCCN3)c12 | 394.2 nM
* Cl.Fc1ccc2c(ccn2CC2=NCCN2)c1 | 306.7 nM
* Cl.Clc1ccc2ccn(CC3=NCCN3)c2c1 | 228.7 nM

Exercise: State measured Ki of the molecule Brc1cccc2c1ccn2CC1=NCCN1.Cl with Adrenergic receptor alpha-1 (Rattus norvegicus, UniProt P15823+P23944+P43140).
Solution: 257.7 nM

Exercise: State measured Ki of the molecule Cl.c1ccc2c(c1)ccn2CC1=NCCN1 with Adrenergic receptor alpha-1 (Rattus norvegicus, UniProt P15823+P23944+P43140).
Solution: 61.4 nM

Exercise: State measured Ki of the molecule Br.c1ccc(COc2cccc3ccn(CC4=NCCN4)c23)cc1 with Adrenergic receptor alpha-1 (Rattus norvegicus, UniProt P15823+P23944+P43140).
Solution: 381.8 nM
